viability, T/C listing for selected compounds.
# Tested on: HOP-62 multicell spheroids with HUVEC/MSC, viability
# Procedure details: Anticancer human tumor HOP-62 cell line growth inhibition [KRAS2];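 also: viability read after a week of compound exposure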;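 as to viability, T/C: 100% = DMSO vehicle-treated spheroids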
# Assay conditions: second compound 3.16 µM; first compound 3.16 µM; stronger effect = lower value

Example results:
Compound	viability, T/C
COc1cc(Nc2ncc3c(n2)-c2ccc(Cl)cc2C(c2c(F)cccc2OC)=NC3)ccc1C(=O)O + CNCc1ccccc1-c1csc(C(C)Nc2nc(C)nc3cc(OC)c(OC)cc23)c1	0.62%
COc1cc2nccc(Oc3ccc(NC(=O)C4(C(=O)Nc5ccc(F)cc5)CC4)cc3)c2cc1OC + COc1cc2nc(C)nc(NC(C)c3cc(N)cc(C(F)(F)F)c3)c2cc1OC1CCOC1	0.59%
CC(C)NCC(C(=O)N1CCN(c2ncnc3c2C(C)CC3O)CC1)c1ccc(Cl)cc1 (stereo not drawn) + C=CC(=O)N1CCN(c2nc(OCC3CCCN3C)nc3c2CCN(c2cccc4cccc(C)c24)C3)CC1CC#N	0.31%
CCNC(=O)CC1N=C(c2ccc(Cl)cc2)c2cc(OC)ccc2-n2c(C)nnc21 (stereo not drawn) + COc1cc2nc(C)nc(NC(C)c3cc(N)cc(C(F)(F)F)c3)c2cc1OC1CCOC1	15.5%

Here is another compound to look at.
Ask: // lookup viability, T/C for COc1cc2nccc(Oc3ccc(NC(=O)C4(C(=O)Nc5ccc(F)cc5)CC4)cc3)c2cc1OC + C=CC(=O)N1CCN(c2nc(OCC3CCCN3C)nc3c2CCN(c2cccc4cccc(C)c24)C3)CC1CC#N
Reply: 0.13%

====

# System: HOP-62 multicell spheroids with HUVEC/MSC, viability
# Procedure details: Anticancer human tumor HOP-62 cell line growth inhibition [KRAS2];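 also: viability read after a week of compound exposure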;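 as to viability, T/C: 100% = DMSO vehicle-treated spheroids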
# Assay conditions: second compound 0.316 µM; first compound 0.316 µM; stronger effect = lower value
This listing pairs compounds with measured viability, T/C.
A number alone suffices; assume %.

Previously resolved entries follow.
Compound	Output unit	Endpoint result
CCN1CCN(Cc2ccc(Nc3ncc(F)c(-c4cc(F)c5nc(C)n(C(C)C)c5c4)n3)nc2)CC1 + CNCc1ccccc1-c1csc(C(C)Nc2nc(C)nc3cc(OC)c(OC)cc23)c1	%	71.7
CCN1CCN(Cc2ccc(Nc3ncc(F)c(-c4cc(F)c5nc(C)n(C(C)C)c5c4)n3)nc2)CC1 + C=CC(=O)N1CCN(c2nc(OCC3CCCN3C)nc3c2CCN(c2cccc4cccc(C)c24)C3)CC1CC#N	%	34.1

Field: next compound
Ask: I am curious: what viability, T/C value has been reported for CCNC(=O)CC1N=C(c2ccc(Cl)cc2)c2cc(OC)ccc2-n2c(C)nnc21 (stereo not drawn) + C=CC(=O)N1CCN(c2nc(=O)n(-c3c(C)ccnc3C(C)C)c3nc(-c4c(O)cccc4F)c(F)cc23)C(C)C1 ?
Reply: 30.1

====

# System: HOP-62 multicell spheroids with HUVEC/MSC, viability
# Procedure details: Anticancer human tumor HOP-62 cell line growth inhibition [KRAS2];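 also: viability read after a week of compound exposure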
# Assay conditions: curve of first compound; second compound 1 µM
The compounds listed here are annotated with their IC50.
Express the result in µM but write the number alone.

Reference set (2 entries):
Compound	Output unit	Endpoint result
CCN1CCN(Cc2ccc(Nc3ncc(F)c(-c4cc(F)c5nc(C)n(C(C)C)c5c4)n3)nc2)CC1 + CC1OCC2(CCN(c3cnc(Sc4ccnc(N)c4Cl)c(N)n3)CC2)C1N	µM	0.0675
CC(C)n1nc(-c2ccc3oc(N)nc3c2)c2c(N)ncnc21 + COc1cc2nc(C)nc(NC(C)c3cc(N)cc(C(F)(F)F)c3)c2cc1OC1CCOC1	µM	0.0018

Ask: Quick one: IC50 of CC1COCCN1c1cc(-c2ccnn2C)c2ccnc(-c3ccn[nH]3)c2n1 (stereo not given) + CNCc1ccccc1-c1csc(C(C)Nc2nc(C)nc3cc(OC)c(OC)cc23)c1 ?
Reply: 0.0369
